settings: in acetonitrile, 293.15 K
parameter: solubility (mole fraction)
Please reply with the number alone, leaving off any unit.

Asked: Sample `O=C(O)c1cccnc1Nc1cccc(C(F)(F)F)c1` — what was its solubility (mole fraction)?
Given back: 0.00125

----------
details: in n-propanol, 308.15 K
parameter: solubility (mole fraction)
# answer = number (no unit)

Asked: Field request: solubility (mole fraction) | item: `O=C(O)c1cccnc1Nc1cccc(C(F)(F)F)c1`
Given back: 0.0147

----------
details: in acetonitrile, 318.15 K
parameter: solubility (mole fraction)
Reply briefly: the number, and no unit.

Asked: If you can, please state the reported solubility (mole fraction) value of `O=C(O)c1cccnc1Nc1cccc(C(F)(F)F)c1` .
Given back: 0.00595

----------
settings: in n-heptane, 303.15 K
parameter: solubility (mole fraction)
# answer = number (no unit)

Asked: Quick one: solubility (mole fraction) of `O=C(O)c1cccnc1Nc1cccc(C(F)(F)F)c1` ?
Given back: 0.00562

----------
details: in ethyl acetate, 328.15 K
parameter: solubility (mole fraction)
Give a plain numeric answer without units written out.

Asked: Any idea what solubility (mole fraction) was measured for `O=C(O)c1cccnc1Nc1cccc(C(F)(F)F)c1` ?
Given back: 0.0544

----------
settings: in MTBE, 323.15 K
parameter: solubility (mole fraction)
Returns: the value as a bare number; no unit string appended.

Asked: Which solubility (mole fraction) value is on record for `O=C(O)c1cccnc1Nc1cccc(C(F)(F)F)c1` ?
Given back: 0.08

----------
conditions: in acetone, 288.15 K
parameter: solubility (mole fraction)
No unit in the answer, please; the number alone is enough.

Asked: Which solubility (mole fraction) is listed for `O=C(O)c1cccnc1Nc1cccc(C(F)(F)F)c1` ?
Given back: 0.0273

----------
conditions: in n-heptane, 328.15 K
parameter: solubility (mole fraction)

Asked: Could you tell me which solubility (mole fraction) is on file for `O=C(O)c1cccnc1Nc1cccc(C(F)(F)F)c1` ?
Given back: 0.0172

----------
settings: in methanol, 323.15 K
parameter: solubility (mole fraction)
// print number alone

Asked: Entry `O=C(O)c1cccnc1Nc1cccc(C(F)(F)F)c1` has what solubility (mole fraction)?
Given back: 0.0151

----------
details: in isopropyl acetate, 313.15 K
parameter: solubility (mole fraction)
Please give only the number in your answer, with no unit.

Asked: Param item = `O=C(O)c1cccnc1Nc1cccc(C(F)(F)F)c1` ; retrieve measured solubility (mole fraction).
Given back: 0.0435

----------
settings: in methanol, 328.15 K
parameter: solubility (mole fraction)

Asked: // solubility (mole fraction) lookup, key: `O=C(O)c1cccnc1Nc1cccc(C(F)(F)F)c1`
Given back: 0.0171

----------
conditions: in MTBE, 328.15 K
parameter: solubility (mole fraction)
Please respond with just the number, no unit label.

Asked: Any idea what its solubility (mole fraction) is? The compound is `O=C(O)c1cccnc1Nc1cccc(C(F)(F)F)c1`
Given back: 0.0854

----------
conditions: in MTBE, 298.15 K
parameter: solubility (mole fraction)
No unit in the answer, only the number.

Asked: Any idea what solubility (mole fraction) was measured for `O=C(O)c1cccnc1Nc1cccc(C(F)(F)F)c1` ?
Given back: 0.0505

----------
details: in methanol, 288.15 K
parameter: solubility (mole fraction)
Enter a number only.

Asked: Which value of solubility (mole fraction) has been reported for `O=C(O)c1cccnc1Nc1cccc(C(F)(F)F)c1` in the records?
Given back: 0.00655
